# Tested on: MDA-N
# measurement_description: NCI tumour cell line growth inhibition, 48 h

[
  {
    "compound": "CSc1ccc(/C=C2\\N=C(c3ccccc3)N(c3nc4c(Cl)cc(Cl)cc4s3)C2=O)cc1",
    "units_text": "µM",
    "limit_sign": "=",
    "TGI": 36.1
  },
  {
    "compound": "Cc1ccc(O)c(-c2csc(NCN3CCN(CNc4nc(-c5cc(C)ccc5O)cs4)CC3)n2)c1",
    "units_text": "µM",
    "limit_sign": ">",
    "TGI": 100
  },
  {
    "compound": "OCCN=C1c2ccccc2C2C(c3ccccc31)C1c3ccccc3C(=NCCO)c3ccccc3C21 (centres undefined)",
    "units_text": "µM",
    "limit_sign": "=",
    "TGI": 31.3
  },
  {
    "compound": "Nc1nc(N)c2nnn(C[C@H]3CC[C@@H](CO)C3)c2n1",
    "units_text": "µM",
    "limit_sign": ">",
    "TGI": 100
  },
  {
    "compound": "CN(C)CCNC1=CC(=O)c2c(O)ccc(O)c2C1=O",
    "units_text": "µM",
    "limit_sign": "=",
    "TGI": 3.55
  },
  {
    "compound": "O=C1OC[C@@H]2Cc3c([nH]c4ccccc34)[C@@H](c3cc(O)c(O)c(O)c3)N12",
    "units_text": "µM",
    "limit_sign": "=",
    "TGI": 82.5
  },
  {
    "compound": "O=C1OC(C2OC(=O)c3cc(O)c(O)c(O)c3-c3c(O)c(O)c4oc(=O)c5c(c(O)c(O)c6oc(=O)c3c4c65)-c3c(cc(O)c(O)c3O)C(=O)OCC2O)C2OC(=O)c3c(c(O)c(O)c(O)c3[C@H]2O)-c2c1cc(O)c(O)c2O (some centres undefined)",
    "units_text": "µM",
    "limit_sign": "=",
    "TGI": 53.8
  },
  {
    "compound": "CCn1c(-c2ccc(C)cc2)cs/c1=N\\C(P(=O)(O)O)P(=O)(O)O",
    "units_text": "µM",
    "limit_sign": ">",
    "TGI": 100
  },
  {
    "compound": "COC(OC)(c1ccccc1)C(I)I",
    "units_text": "µM",
    "limit_sign": "=",
    "TGI": 22.6
  }
]
